B1: LINE1-mini (parent)
chain: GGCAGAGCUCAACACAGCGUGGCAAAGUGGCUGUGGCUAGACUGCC

- Variants of: B1
- procedureSummary: self-cleavage, relative activity (ratio to wild type); higher = more cleavage; in vitro, sequencing; the parent is a self-cleaving ribozyme

variantLabel	self-cleavage
G2U U38G	0.02
C3G G30C	0.32
C10A A26U	0.06
A14U U34G	0.75
A26U G27U	1.41
G1U C10A	0.03
U9G C23U	0.07
C10U U32A	0.08
C15A U28C	0.12
G5A C37A	0.06
U32G A41C	0.05
A12U C15A	0.09
C10G U38G	0.03
A4U C45A	0.1
C10A U28A	0.04
A41C G44C	0.08
C18U G21C	1.13
G7C C31A	0.09
A12U G44C	0.17
U34C C37A	0.09
G19A	1.5
G22U A25G	1.01
C18G G33C	0.03
G5U C37U	0.05
A11G G44C	0.03
G1A C37A	0.07
G2U C23U	0.15
C15A C45U	0.12
A12C C45A	0.03
G40A C46A	0.14
G27A G36A	0.09
C3G G17U	0.15
C15G C23U	0.08
A6U C18A	0.52
G2C G17A	0.08
G19A A24U	2.05
